assayed_target: purified catalytic domain of recombinant human TACE (rhTACEc) (Homo sapiens, UniProt P78536, N452Q/S266A)
Construct: 6xHis (C); made in house; host or cells: baculovirus/Hi5 insect cells
Sequence (P78536 215-477 S266A/N452Q): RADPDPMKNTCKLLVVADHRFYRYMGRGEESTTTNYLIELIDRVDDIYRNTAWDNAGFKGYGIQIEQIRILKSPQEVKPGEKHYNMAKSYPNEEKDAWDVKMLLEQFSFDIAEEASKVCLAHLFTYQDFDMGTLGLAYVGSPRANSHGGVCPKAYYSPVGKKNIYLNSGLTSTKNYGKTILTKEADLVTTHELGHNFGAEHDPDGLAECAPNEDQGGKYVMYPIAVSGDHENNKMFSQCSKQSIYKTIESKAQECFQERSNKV
measurement_protocol: TACE kinetic assay: cleavage of internally quenched peptide substrate TNF-FRET 2 (Ki)
Format: biochemical
condition_summary: TNF-FRET 2 substrate, read-out: Ki
measurement_type: Ki (nM)
Please respond with the number in nM and leave the unit unwritten.

CCc1nccc2oc([C@]3(CN4Cc5ccc(OC)cc5C4=O)NC(=O)NC3=O)cc12 : 0.25
COc1ccc2c(c1)C(=O)N(C[C@@]1(c3cc4ncc(CNCc5ccccc5)cc4o3)NC(=O)NC1=O)C2 : 2.24
COc1ccc2c(c1)C(=O)N(C[C@@]1(c3cc4cc(NS(C)(=O)=O)ccc4o3)NC(=O)NC1=O)C2 : 0.701
COc1ccc2c(c1)C(=O)N(C[C@@]1(c3cc4c(o3)CN(C)CC4)NC(=O)NC1=O)C2 : 0.417
COc1ccc2c(c1)C(=O)N(C[C@@]1(c3ccc(-c4cnc(N5CCCC5)nc4)cc3)NC(=O)NC1=O)C2 : 2.4
COc1ccc2c(c1F)C(=O)N(C[C@@]1(c3cc4cc5c(cc4o3)C(=O)NCC5)NC(=O)NC1=O)C2 : 0.195
COc1ccc2c(c1)C(=O)N(C[C@@]1(c3cc4ccc(C(=O)O)cc4o3)NC(=O)NC1=O)C2 : 0.3
CCOC(=O)c1ccc2cc([C@]3(CN4Cc5ccc(OC)cc5C4=O)NC(=O)NC3=O)oc2c1 : 0.33

Request: Tell me the measured Ki of COc1ccc2c(c1)C(=O)N(CC1(c3cc4cc(-c5cc(O)[nH]n5)ccc4o3)NC(=O)NC1=O)C2 (centres unmarked) , please.
Result: 1.23

Request: Tell me the measured Ki of COc1ccc2c(c1)C(=O)N(C[C@@]1(c3cc4nc(Nc5ccccn5)ccc4o3)NC(=O)NC1=O)C2 , please.
Result: 0.888

Request: Tell me the measured Ki of COc1ccc2c(c1)C(=O)N(C[C@@]1(c3cc4c(C)nccc4o3)NC(=O)NC1=O)C2 , please.
Result: 0.5

====

assayed_target: purified catalytic domain of recombinant human TACE (rhTACEc) (Homo sapiens, UniProt P78536, N452Q/S266A)
Construct: 6xHis (C); made in house; host or cells: baculovirus/Hi5 insect cells
measurement_protocol: TACE kinetic assay: cleavage of internally quenched peptide substrate TNF-FRET 2 (Ki)
Assay type: biochemical
condition_summary: Ki, TNF-FRET 2 substrate
measurement_type: pKi
Scale: pKi equals -log10([C]), with [C] in mol/L.

Reference set (5 entries):
COc1ccc2c(c1F)C(=O)N(C[C@@]1(c3cc4nc(N5CCNC(=O)C5)ccc4o3)NC(=O)NC1=O)C2 : 9.22
COc1ccc2c(c1)C(=O)N(C[C@@]1(c3cc4c(C)nc(N)nc4o3)NC(=O)NC1=O)C2 : 9.12
O=C1NC(=O)[C@](CN2Cc3ccc(O)c(F)c3C2=O)(c2cc3ncccc3o2)N1 : 8.79
COc1ccc2c(c1)C(=O)N(C[C@@]1(c3cc4nc(N(c5cccnc5)C5CCNCC5)ccc4o3)NC(=O)NC1=O)C2 : 9.26
COc1ccc2c(c1)C(=O)N(C[C@@]1(c3cn4ccsc4n3)NC(=O)NC1=O)C2 [Compound 502C] : 8.90

Request: Tell me the measured pKi of COc1ccc2c(c1)C(=O)N(C[C@@]1(c3cc4c(o3)CCN(CC(N)=O)C4)NC(=O)NC1=O)C2 [Compound 2268] , please.
Result: 9.15

Request: Tell me the measured pKi of COc1ccc2c(c1)C(=O)N(C[C@@]1(c3cc4cnc(-c5ccncc5)cc4o3)NC(=O)NC1=O)C2 , please.
Result: 9.27

Request: Tell me the measured pKi of COc1ccc2c(c1)C(=O)N(C[C@@]1(c3cc4ccc(-c5nnco5)cc4o3)NC(=O)NC1=O)C2 , please.
Result: 9.27
